biological target: T1, solubilised human IR-A (semipurified by wheat germ agglutinin chromatography from baby hamster kidney (BHK) … (human, UniProt P06213-2 28-1370)); assay: SPA competition vs [125I-A14Y]-human insulin, solubilised hIR-A, 1.5% HSA
T1 construct: mature; Detergent-solubilised holoreceptor captured by anti-IR mouse antibody 83-7 on SPA beads; the precursor is processed into alpha and beta chains; also called hIRA; human insulin receptor (IR), A isoform
T1 sequence (P06213 other isoform, or with tags, fused parts or gaps limits assumed): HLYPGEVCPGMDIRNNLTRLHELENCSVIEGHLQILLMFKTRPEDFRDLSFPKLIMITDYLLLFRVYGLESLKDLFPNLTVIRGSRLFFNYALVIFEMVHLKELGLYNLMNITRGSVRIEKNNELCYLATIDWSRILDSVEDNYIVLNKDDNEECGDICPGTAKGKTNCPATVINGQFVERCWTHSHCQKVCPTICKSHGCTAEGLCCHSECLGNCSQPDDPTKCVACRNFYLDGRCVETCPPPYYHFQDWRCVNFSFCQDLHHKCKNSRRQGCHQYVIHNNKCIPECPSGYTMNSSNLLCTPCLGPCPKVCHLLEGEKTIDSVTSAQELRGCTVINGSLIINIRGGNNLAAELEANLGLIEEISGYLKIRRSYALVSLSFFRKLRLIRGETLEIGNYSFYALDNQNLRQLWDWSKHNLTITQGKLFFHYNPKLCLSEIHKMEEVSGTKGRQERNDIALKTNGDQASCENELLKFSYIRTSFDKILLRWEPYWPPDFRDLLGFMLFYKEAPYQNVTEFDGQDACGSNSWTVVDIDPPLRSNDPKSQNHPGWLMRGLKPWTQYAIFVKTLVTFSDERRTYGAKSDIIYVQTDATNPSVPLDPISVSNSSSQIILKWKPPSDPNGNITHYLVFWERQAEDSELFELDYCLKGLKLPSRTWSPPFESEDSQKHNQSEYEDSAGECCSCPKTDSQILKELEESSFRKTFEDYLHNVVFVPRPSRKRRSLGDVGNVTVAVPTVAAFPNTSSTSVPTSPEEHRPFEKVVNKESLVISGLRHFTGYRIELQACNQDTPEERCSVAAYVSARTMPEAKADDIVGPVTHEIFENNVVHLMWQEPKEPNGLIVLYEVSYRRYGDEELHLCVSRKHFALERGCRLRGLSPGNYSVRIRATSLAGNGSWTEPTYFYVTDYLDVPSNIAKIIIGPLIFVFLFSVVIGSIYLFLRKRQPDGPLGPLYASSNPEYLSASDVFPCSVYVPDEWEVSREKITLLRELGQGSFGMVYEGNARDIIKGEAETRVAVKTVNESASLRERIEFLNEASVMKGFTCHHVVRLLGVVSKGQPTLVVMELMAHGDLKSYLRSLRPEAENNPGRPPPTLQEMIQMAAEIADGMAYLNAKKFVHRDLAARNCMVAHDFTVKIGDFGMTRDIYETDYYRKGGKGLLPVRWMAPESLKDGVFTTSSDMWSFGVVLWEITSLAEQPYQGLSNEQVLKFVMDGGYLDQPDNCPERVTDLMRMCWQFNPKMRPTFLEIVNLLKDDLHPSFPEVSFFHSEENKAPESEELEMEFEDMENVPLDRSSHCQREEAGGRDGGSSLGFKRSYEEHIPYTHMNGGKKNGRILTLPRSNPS
measurement.label: relative binding affinity (% rel to HI)

Input A14E, A22K(N(eps)tetradecanedioyl-4xgGlu), B3Q, B28D, B29R, desB30 human insulin (ligand, not fully specified; Lys A22 acylated on N(eps) with tetradecanedioyl-4xgGlu, also called Ex. No. 8) chain 1: GIVEQCCTSICSLEQLENYCNK chain 2: FVQQHLCGSHLVEALYLVCGERGFFYTDR . Output relative binding affinity (% rel to HI): 64.9 % rel to HI

Input A14E, A22K(N(eps)tetradecanedioyl-4xgGlu), B3E, B27E, B28E, B29R, desB30 human insulin (ligand, not fully specified; Lys A22 acylated on N(eps) with tetradecanedioyl-4xgGlu, Two-chain acylated insulin analogue; also called Ex. No. 4) chain 1: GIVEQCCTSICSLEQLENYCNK chain 2: FVEQHLCGSHLVEALYLVCGERGFFYEER . Output relative binding affinity (% rel to HI): 44.9 % rel to HI

Input A8R, A22K(N(eps)tetradecanedioyl-4xgGlu), B3E, B27E, B28R, desB29, desB30 human insulin (ligand, not fully specified; Lys A22 acylated on N(eps) with tetradecanedioyl-4xgGlu, Two-chain acylated insulin analogue; also called Ex. No. 17) chain 1: GIVEQCCRSICSLYQLENYCNK chain 2: FVEQHLCGSHLVEALYLVCGERGFFYER . Output relative binding affinity (% rel to HI): 163 % rel to HI

Input A14E, A22K(N(eps)hexadecanedioyl-4xgGlu), B3E, B27E, B28E, B29R, desB30 human insulin (ligand, not fully specified; Lys A22 acylated on N(eps) with hexadecanedioyl-4xgGlu, Two-chain acylated insulin analogue; also called Ex. No. 27) chain 1: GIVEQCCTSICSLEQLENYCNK chain 2: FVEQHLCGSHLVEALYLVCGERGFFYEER . Output relative binding affinity (% rel to HI): 5.4 % rel to HI

Input A14E, A22K(N(eps)tetradecanedioyl-4xgGlu), B3Q, B27E, B28E, B29R, desB30 human insulin (ligand, not fully specified; Lys A22 acylated on N(eps) with tetradecanedioyl-4xgGlu, also called Ex. No. 9) chain 1: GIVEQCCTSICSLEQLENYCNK chain 2: FVQQHLCGSHLVEALYLVCGERGFFYEER . Output relative binding affinity (% rel to HI): 70.2 % rel to HI

Input A8R, A22K(N(eps)tetradecanedioyl-4xgGlu), B3E, B27E, B28E, B29R, desB30 human insulin (ligand, not fully specified; Lys A22 acylated on N(eps) with tetradecanedioyl-4xgGlu, Two-chain acylated insulin analogue; also called Ex. No. 24) chain 1: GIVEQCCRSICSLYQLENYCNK chain 2: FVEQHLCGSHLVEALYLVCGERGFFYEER . Output relative binding affinity (% rel to HI): 211 % rel to HI
